# TARGET: TEAD2 (Homo sapiens)
# Sequence (Q15562 whole entry, species assumed): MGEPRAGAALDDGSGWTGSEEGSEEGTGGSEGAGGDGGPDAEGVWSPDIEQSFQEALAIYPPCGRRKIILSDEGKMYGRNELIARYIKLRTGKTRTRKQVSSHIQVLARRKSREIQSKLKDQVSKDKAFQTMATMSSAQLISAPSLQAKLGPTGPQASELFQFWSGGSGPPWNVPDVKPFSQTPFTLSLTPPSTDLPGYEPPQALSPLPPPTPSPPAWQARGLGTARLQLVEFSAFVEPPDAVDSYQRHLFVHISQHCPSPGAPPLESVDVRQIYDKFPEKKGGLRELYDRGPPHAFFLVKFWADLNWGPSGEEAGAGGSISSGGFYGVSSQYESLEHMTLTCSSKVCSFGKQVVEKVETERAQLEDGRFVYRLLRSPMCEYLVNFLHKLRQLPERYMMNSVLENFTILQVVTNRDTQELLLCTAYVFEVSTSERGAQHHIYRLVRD
# PROCEDURE_DETAILS: Thermal shift assay TEAD2
# Assay type: binding
Kindly state TEAD2 ΔTm for each of the entries shown.
Kindly answer with a numeric value in °C, unit omitted.

Query: Quote TEAD2 (Homo sapiens) TEAD2 ΔTm for entry Cn1cc2cc(Oc3ccc(C(F)(F)F)cc3)cc(C3C[C@H]3C(=O)N3CCOC4(COC4)C3)c2n1 (single isomer, unassigned) [Example 114] .
Result: 7.1

Query: Quote TEAD2 (Homo sapiens) TEAD2 ΔTm for entry CNS(=O)(=O)CCc1cc(-c2ccc(C(F)(F)F)cc2)cc2cn(C)nc12 [Example 44] .
Result: 7.6

Query: Quote TEAD2 (Homo sapiens) TEAD2 ΔTm for entry CN1Cc2cc(-c3ccc(C(F)(F)F)cc3)cc(C3C[C@H]3C(=O)O)c2C1=O (mixture of isomers) [Example 15] .
Result: 5.1

Query: Quote TEAD2 (Homo sapiens) TEAD2 ΔTm for entry Cn1cc2cc(Oc3ccc(C(F)(F)F)cc3)cc(C3C[C@H]3C(=O)N3CC(C(=O)O)C3)c2n1 (single isomer, unassigned) [Example 113] .
Result: 5.7

Query: Quote TEAD2 (Homo sapiens) TEAD2 ΔTm for entry Cn1cc2cc(Oc3ccc(C(F)(F)F)cc3)cc(C3C[C@H]3C(=O)N3[C@@H]4CC[C@H]3C[C@@H](O)C4)c2n1 (single isomer, unassigned) [Example 104] .
Result: 9.0

Query: Quote TEAD2 (Homo sapiens) TEAD2 ΔTm for entry CNC(=O)[C@@H]1C[C@H]1c1cc(Oc2ccc(C(F)(F)F)cc2)cc2c1NCCC2 (racemic) [Example 145] .
Result: 9.9
